Target: human FPR1 (Homo sapiens (Human), UniProt P21462)
Sequence (P21462 whole entry): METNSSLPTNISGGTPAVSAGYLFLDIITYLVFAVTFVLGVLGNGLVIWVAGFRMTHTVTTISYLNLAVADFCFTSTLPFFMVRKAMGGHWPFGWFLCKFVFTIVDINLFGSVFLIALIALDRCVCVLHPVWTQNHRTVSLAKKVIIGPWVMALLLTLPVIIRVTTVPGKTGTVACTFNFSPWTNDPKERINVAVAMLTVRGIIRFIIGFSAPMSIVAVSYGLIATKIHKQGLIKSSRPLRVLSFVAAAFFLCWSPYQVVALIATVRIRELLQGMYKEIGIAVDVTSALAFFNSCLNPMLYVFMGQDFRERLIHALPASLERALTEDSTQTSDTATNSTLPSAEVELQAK
Experiment: FPR1 cyclic adenosine monophosphate (cAMP) assay
Settings: CHO cells overexpressing human FPR1; forskolin 10 µM; inhibition of cAMP production; read-out: hFPR1 cAMP EC50
pEC50: −log10 of the molar value.

compound | pEC50
COc1cc(F)c([C@@H]2CN(CC3CC3)C(=O)[C@H]2NC(=O)c2ccc(OC(F)(F)F)cc2)c(F)c1 | 6.25
COCC(CO)n1ccc(C)c(N2C[C@@H](c3c(F)cc(OC)cc3F)[C@H](NC(=O)c3ccc(OC(F)(F)F)cc3)C2=O)c1=O (stereo partly shown) [Example 427] | 8.70
COc1cc(F)c([C@@H]2CN(c3c(C)c4c(n(CCO)c3=O)CCCC4)C(=O)[C@H]2NC(=O)c2ccc(Cl)cc2)c(F)c1 | 7.52
COc1cc(F)c([C@@H]2CN(c3cccn(CC(F)(F)F)c3=O)C(=O)[C@H]2NC(=O)c2ccc(OC(F)F)cc2)c(F)c1 | 6.89
COCC(C(=O)N1C[C@@H]2C[C@H]1CO2)n1cccc(N2C[C@@H](c3c(F)cc(OC)cc3F)[C@H](NC(=O)c3ccc(OC(F)(F)F)cc3)C2=O)c1=O (stereo partly shown) | 8.52
COc1ccc([C@@H]2CN(c3cccn(CC(C)O)c3=O)C(=O)[C@H]2NC(=O)c2ccc(Cl)cc2)cc1 (stereo partly shown) | 7.44
COc1cc(F)c([C@@H]2CN(c3cccn(C4CCOC4)c3=O)C(=O)[C@H]2NC(=O)c2ccc(OC(F)F)cc2)c(F)c1 (stereo partly shown) [Example 201] | 7.74
COc1cc(F)c([C@@H]2CN(c3cccn(C(CO)C(F)(F)F)c3=O)C(=O)[C@H]2NC(=O)c2ccc(OC(F)F)cc2)c(F)c1 (stereo partly shown) [Example 583] | 7.24
CCn1cccc(N2C[C@@H](c3c(F)cc(OC)cc3F)[C@H](NC(=O)c3ccc(C(F)(F)F)cc3)C2=O)c1=O | 7.13
COc1cc(F)c([C@@H]2CN(c3cccc(C4=CNCCC4)n3)C(=O)[C@H]2NC(=O)c2ccc(OC(F)F)cc2)c(F)c1 | 6.15
COCCn1cccc(N2C[C@@H](c3c(F)cc(OC)cc3F)[C@H](NC(=O)c3ccc(OC(C)C)cc3)C2=O)c1=O | 6.08
COc1cc(F)c([C@@H]2CN(c3cccn(CCN4CCOCC4)c3=O)C(=O)[C@H]2NC(=O)c2ccc(OC(F)F)cc2)c(F)c1 | 6.48
COCC(CO)n1cccc(N2C[C@@H](c3ccc(OC)cc3F)[C@H](NC(=O)c3ccc(OC(F)F)cc3)C2=O)c1=O (stereo partly shown) | 8.15
